Origin of values: ChEMBL document CHEMBL3232993

The reader will find reported Activity values listed item by item below.
target: Ionotropic glutamate receptor NMDA 1/2D (Rattus norvegicus) (UniProt P35439+Q62645); experiment: Potentiation of rat recombinant GluN1/GluN2D expressed in Xenopus laevis oocytes assessed as increase in glutamate/glycine-induced current response at 30 uM by two-electrode voltage clamp technique relative to control; type: cell-based
Answer in %, number only, no unit symbol.

stdin: State, in one line, measured Activity of COC(=O)c1ccc(C2C(C(C)=O)=C(OC(C)=O)C(=O)N2CCc2c[nH]c3ccccc23)cc1 (stereo not drawn)
stdout: 92

stdin: Please give the documented Activity of COC(=O)c1cccc(C2C(C(C)=O)=C(O)C(=O)N2CCc2c[nH]c3ccccc23)c1 (stereo not drawn)
stdout: 94

stdin: Tell us which Activity value is on record for COC(=O)c1ccc(C2C(C(=O)c3cccnc3)=C(O)C(=O)N2CCc2c[nH]c3cccc(C)c23)cc1 (stereo not drawn)
stdout: 74
